assay_system: N 1-209 (nucleocapsid N-terminal region: N-terminal flank, NTD and SR region) (SARS-CoV-2, UniProt P0DTC9 1-209)
assay_overview: NMR titration
reported_metric: Kd (µM)
Quick note: give the figure in µM, leave out the unit.

input: Name the recorded Kd for AAUAA (ssRNA) .
output: 189

input: Consider the binder shown here: UAAUAAC (mixed, 2'-deoxy at terminal nucleotides 1 (dU) and 7 (dC); remainder RNA) [dUAAUAAdC] What is its recorded Kd?
output: 138
